Measured hMAGL inhibition at 10 μM (%), listed per entry.
- ASSAY_SYSTEM: MAGL (Homo sapiens)
- Sequence (Q99685 whole entry): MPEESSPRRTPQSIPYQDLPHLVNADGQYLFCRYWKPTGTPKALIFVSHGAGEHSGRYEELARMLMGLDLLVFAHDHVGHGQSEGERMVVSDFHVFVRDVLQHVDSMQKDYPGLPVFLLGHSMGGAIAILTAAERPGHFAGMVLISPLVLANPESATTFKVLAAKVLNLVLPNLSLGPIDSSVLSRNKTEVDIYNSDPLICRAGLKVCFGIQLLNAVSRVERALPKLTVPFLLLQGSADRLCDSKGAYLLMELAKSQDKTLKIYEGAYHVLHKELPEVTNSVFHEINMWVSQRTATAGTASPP
- METHOD_SUMMARY: hMAGL coumarin substrate fluorescence assay
- Assay type: biochemical
- Set-up: The N-terminal his-tagged full length human monoacylglycerol lipase used; His (N); made in house; host or cells: E. coli
- DETAILS: 10 μM
EXPERIMENTAL_READOUT: hMAGL inhibition at 10 μM (%)

{"columns": ["MOLECULE", "OBSERVED_RESULT"],
 "data": [
  ["CCCCCCCCCCC[C@@H](C[C@@H]1OC(=O)[C@H]1CCCCCC)OC(=O)[C@@H](NC=O)[C@H](C)CC", 1],
  ["CCCCCCCCCCC[C@@H](C[C@@H]1OC(=O)[C@H]1CCCCCC)OC(=O)[C@@H](NC=O)[C@@H](C)CC", 16],
  ["CCCCCCCCCCCC(CC1OC(=O)C1CCCCCC)OC(=O)C(NC=O)C(C)CC (stereo not shown)", 39],
  ["CCCCCCCCCCC[C@@H](C[C@@H]1OC(=O)[C@H]1CCCCCC)OC(=O)[C@H](NC=O)[C@@H](C)CC", 42]
]}

----------
Measured Lipoprotein Lipase (Bacterial) inhibition at 10 μM (%), listed per entry.
- Tested on: Lipoprotein Lipase (Bacterial)
- Format: biochemical, Pseudomonas sp.
- DETAILS: 10 μM
EXPERIMENTAL_READOUT: Lipoprotein Lipase (Bacterial) inhibition at 10 μM (%)

{"columns": ["COMPOUND", "UNIT_LABEL", "SIGN", "OBSERVED_RESULT"],
 "data": [
  ["CCCCCCCCCCC[C@@H](C[C@@H]1OC(=O)[C@H]1CCCCCC)OC(=O)[C@@H](NC=O)[C@@H](C)CC", "%", "=", 84],
  ["CCCCCCCCCCCC(CC1OC(=O)C1CCCCCC)OC(=O)C(NC=O)C(C)CC (stereo not shown)", "%", "=", 86],
  ["CCCCCCCCCCCCCC1CC(=O)O1 (racemic)", "%", "<", 0],
  ["CCCCCCC[C@H]1OC(=O)[C@H]1CCCCCC (relative stereo) [Compound 11, cis-3-Hexyl-4-heptyloxetan-2-one]", "%", "=", 33]
]}

----------
- ASSAY_SYSTEM: mDAGLα (Mus musculus)
- Sequence (Q6WQJ1 whole entry): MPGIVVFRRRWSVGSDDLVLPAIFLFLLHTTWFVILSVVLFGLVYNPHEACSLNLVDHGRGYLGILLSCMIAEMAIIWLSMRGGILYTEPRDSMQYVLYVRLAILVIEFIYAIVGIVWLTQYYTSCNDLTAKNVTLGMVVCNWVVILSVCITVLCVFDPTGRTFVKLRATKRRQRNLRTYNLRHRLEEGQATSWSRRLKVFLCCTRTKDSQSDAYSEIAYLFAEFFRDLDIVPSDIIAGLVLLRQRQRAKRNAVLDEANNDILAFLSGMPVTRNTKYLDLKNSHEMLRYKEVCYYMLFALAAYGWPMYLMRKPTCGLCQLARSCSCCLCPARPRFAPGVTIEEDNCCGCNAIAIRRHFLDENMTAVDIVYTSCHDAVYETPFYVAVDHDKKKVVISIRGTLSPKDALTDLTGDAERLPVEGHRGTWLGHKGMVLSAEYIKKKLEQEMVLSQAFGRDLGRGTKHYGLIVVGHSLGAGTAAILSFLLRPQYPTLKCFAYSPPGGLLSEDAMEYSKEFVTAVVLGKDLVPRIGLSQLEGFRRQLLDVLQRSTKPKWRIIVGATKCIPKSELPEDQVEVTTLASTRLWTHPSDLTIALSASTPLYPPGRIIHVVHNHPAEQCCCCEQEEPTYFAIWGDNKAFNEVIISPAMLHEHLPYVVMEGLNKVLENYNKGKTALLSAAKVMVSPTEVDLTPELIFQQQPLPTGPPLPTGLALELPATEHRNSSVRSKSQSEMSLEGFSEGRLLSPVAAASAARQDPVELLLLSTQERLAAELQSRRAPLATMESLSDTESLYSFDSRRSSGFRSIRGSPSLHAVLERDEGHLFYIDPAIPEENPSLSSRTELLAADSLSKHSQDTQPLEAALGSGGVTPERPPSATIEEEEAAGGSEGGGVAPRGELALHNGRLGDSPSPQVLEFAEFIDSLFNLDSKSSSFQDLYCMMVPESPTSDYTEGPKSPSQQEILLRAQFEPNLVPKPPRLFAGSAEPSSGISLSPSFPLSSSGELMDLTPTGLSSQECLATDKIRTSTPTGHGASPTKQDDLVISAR
- METHOD_SUMMARY: Radio-TLC assay with [14C]SAG substrate, mDAGLα
- DETAILS: 10000 nM
Label class 1 for high-side mDAGLα inhibition at 10000 nM (%) (at or above 90%) and class 0 for low-side mDAGLα inhibition at 10000 nM (%) (below it).

{"columns": ["COMPOUND", "CLASS_NAME"],
 "data": [
  ["CCCCCCCCCCCC(CC1OC(=O)C1CCCCCC)OC(=O)C(NC=O)C(C)CC (centres unmarked)", "class 0"],
  ["CCCCCCCCCCC[C@@H](C[C@@H]1OC(=O)[C@H]1CCCCCC)OC(=O)[C@@H](NC=O)[C@@H](C)CC", "class 1"],
  ["CCCCCCCCCCC[C@@H](C[C@@H]1OC(=O)[C@H]1CCCCCC)OC(=O)[C@@H](NC=O)[C@H](C)CC", "class 1"],
  ["O=C(Oc1ccc([N+](=O)[O-])cc1)N1CCN(Cc2cccc(Oc3ccccc3)c2)CC1", "class 0"]
]}
